Each recorded value in this set is attributed to the NIST ThermoML archive (doi:10.1021/je500420g).

Provide the reported mass density of each item.
Assay: xn = mol fraction of the nth substance listed
Settings: 293.15 K; 100 kPa; Liquid; Vibrating tube method; x1 = 0.05
Express the result in kg/m3 but write the number alone.

Challenge: // Input: [Cl-].[Rb+] [rubidium chloride] + O . Output its mass density only.
Response given: 1237.9

Challenge: // Input: [Br-].[Cs+] [cesium bromide] + O . Output its mass density only.
Response given: 1438.8

Challenge: // Input: [Cs+].[I-] [cesium iodide] + O . Output its mass density only.
Response given: 1519.4

Challenge: // Input: [I-].[K+] [potassium iodide] + O . Output its mass density only.
Response given: 1317.9

Challenge: // Input: [Br-].[Na+] [sodium bromide] + O . Output its mass density only.
Response given: 1217.1

Challenge: // Input: [Br-].[K+] [potassium bromide] + O . Output its mass density only.
Response given: 1227.4

Challenge: // Input: [Cs+].[F-] [cesium fluoride (CsF)] + O . Output its mass density only.
Response given: 1349.9
